target: Fuc(a1-2)Gal(b1-3)GlcNAc; test: glycan array binding signal (z-score within array); higher = stronger binding; details: glycan notation: IUPAC condensed, linker removed
The sample as a whole holds a higher share of the strongest signals than the screen did.
MEASUREMENT_KIND: glycan array binding signal (z-score)
Form rule: numeric answer, no unit written next to it.

INSERT INTO assay_data (binder, reported_result) VALUES
  ('BC2L-D C-terminal domain (Burkholderia cenocepacia), Q39MQ9_BURS3 (protein) LVIVDAVTLLSAYPEASRDPAAPTVIDGRHLYVVSPGDAAQLGHNDSRLFTGLSPGDQLHLRETALALRAEVSVLFIRFALKDAGIVAPIELEVRDAATAVPDADDLLHPSCRPLKDHYWRSDVLAAGATTCTADFAVCDRDGTVSGYFRWETSIEIAGSQPDTKQPGFKPSSDRNGNFSLPPNTAFKAIFYANAADRQDLKLFIDDAPEPAATFVGNSEDGVRLFTLNSKGGKIRIEASANGRQSATDARLAPLSAGDTVWLGWLGAEDGADADYNDGIVILQWPIT', 0.536);

Now examine the next entry.
Short answer for SJCP1084 (Schistosoma japonicum) (protein) MRIINLVIISTALLLINLLQTKSQANGEDTKNGTPDDPGLTKSTELKVEVQALLKDKKTNMRVKWNENLLDNTKPEYHNLRDEACELLLQIVRSVVPLSQDDGECKDVTFTKYVVGTKDGAVNVKLTITFKDSVAINQKPMDLKLKLENDFKNLQSESTLKATKPTFTVKVEKRLIPISKPQTTPPTTAKNDASKENVGDIGGEDSTVPTAAPATAASANEEKDEGDKDNKDSQHPNVLTSNVNDRNLIIALVALMILAIGVALTAAVKQR : glycan array binding signal (z-score) was 0.181
